Origin of the recorded values: paper PMC4889517

Tested on: LNCaP cells
Assay details: MTT staining cytotoxicity, LNCaP
Assay type: cell-based, human
Condition: read-out: IC50 (MTT)
Readout name: pIC50
// pIC50 is dimensionless: -log10 of concentration (M)

LNCaP cells / pIC50 / Oc1ccc2ccccc2c1SSc1c(O)ccc2ccccc12 : value?
5.00

---

Test system: MCF-7
Assay details: MTT staining cytotoxicity, MCF-7
Assay type: cell-based, human
Condition: read-out: IC50 (MTT)
Readout name: IC50 (µM)
Unit µM implied. Number only.

// query IC50 value for entry Oc1ccc2ccccc2c1SSc1c(O)ccc2ccccc12
25
